Attribution: patent US5955495A

The following compounds are listed with their measured Ki values.
biological target: 5-HT2C receptor (Rattus norvegicus, UniProt P08909); test: [3H]-5-HT binding assay (method a), affinity to the 5-HT2C receptor; set-up: expressed in transfected cells; details: Ki from IC50 in nM, read-out: Pki (Pki=-log10 Ki), 5-HT2C, Method a (converted)
Sequence (P08909 33-460): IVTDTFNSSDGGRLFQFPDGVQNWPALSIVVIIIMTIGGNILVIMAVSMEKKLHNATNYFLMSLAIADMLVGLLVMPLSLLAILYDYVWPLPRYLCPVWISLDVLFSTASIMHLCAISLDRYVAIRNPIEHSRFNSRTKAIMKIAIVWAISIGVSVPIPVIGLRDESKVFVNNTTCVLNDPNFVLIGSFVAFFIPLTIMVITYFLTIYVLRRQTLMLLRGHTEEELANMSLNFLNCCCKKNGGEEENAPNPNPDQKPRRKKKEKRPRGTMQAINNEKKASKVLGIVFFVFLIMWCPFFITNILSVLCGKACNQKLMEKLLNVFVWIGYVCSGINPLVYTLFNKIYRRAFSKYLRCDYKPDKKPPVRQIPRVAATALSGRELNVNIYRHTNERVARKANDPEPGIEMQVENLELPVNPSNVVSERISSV

- Compound: "CCOCc1cccc2cc(C(=N)N)oc12 [Example 7, 7-Ethoxymethylbenzofuran-2-carboxamidine]"
  Ki: "100 nM"
- Compound: "CCOc1cccc2cc(C(N)=NO)oc12 [Example 14, 7-Ethoxybenzofuran-2-carboxamidoxime]"
  Ki: "5500 nM"
- Compound: "N=C(N)c1cc2cccc(OCc3ccccc3)c2o1 [OBn H H H H]"
  Ki: "63.1 nM"
- Compound: "N=C(N)c1cc2cc(Cl)cc(Br)c2o1 [Br H Cl H H]"
  Ki: "5010 nM"
- Compound: "CCOc1cccc2cc(C(=N)N)oc12 [Example 4, 7-Ethoxybenzofuran-2-carboxamidine]"
  Ki: "50.1 nM"
- Compound: "COc1ccc2oc(C(=N)N)cc2c1 [H H OMe H H]"
  Ki: "2510 nM"
- Compound: "N=C(N)c1cc2ccc(Cl)cc2o1 [H Cl H H H]"
  Ki: "1260 nM"
- Compound: "N=C(N)c1cc2c(F)cc(F)cc2o1 [Example 10, 4.6-Difluoro-benzofuran-2-carboxamidine]"
  Ki: "7.94 nM"
- Compound: "CCCc1c(F)ccc2cc(C(=N)N)oc12 [Example 8]"
  Ki: "20 nM"
- Compound: "CC(C)OCc1cccc2cc(C(=N)N)oc12 [CH2 --O-iPr H H H H]"
  Ki: "398 nM"
- Compound: "COc1ccc(C)c2cc(C(=N)N)oc12 [OMe H H Me H]"
  Ki: "100 nM"
